- Study system: TGF-beta receptor type-1 (Rattus norvegicus) (UniProt P80204)
- Assay name: Inhibition of TGFbeta1 receptor in TGFbeta1-stimulated Sprague-Dawley rat cardiac fibroblasts assessed as reduction in fibronectin expression at 10 uM measured after 12 hrs by Western blot analysis relative to control
Activity calls are given as the source filed them. No cut-off for these calls is given here.
Possible outcomes: TRUE for active, FALSE for inactive

Smiles input	Study system	Assigned class
C=C(C)[C@@H]1C/C=C(C)/C(=N\OC(C)=O)CCC2=C[C@@H]1OC2=O	TGF-beta receptor type-1 (Rattus norvegicus) (UniProt P80204)	FALSE
C=C(C)[C@@H]1CC/C(C)=C/CC[C@@H](C(=O)OCC)CC1=O	TGF-beta receptor type-1 (Rattus norvegicus) (UniProt P80204)	FALSE
C=C(C)[C@@H]1C/C=C(\C)[C@H](Br)CCC2=C[C@@H]1OC2=O	TGF-beta receptor type-1 (Rattus norvegicus) (UniProt P80204)	TRUE
C=C(C)[C@@H]1C[C@@H](OC=O)/C(C)=C/CCC2=C[C@@H]1OC2=O	TGF-beta receptor type-1 (Rattus norvegicus) (UniProt P80204)	FALSE
C=C(C)[C@@H]1C/C=C(C)/C(=N\OC(=O)c2ccco2)CCC2=C[C@@H]1OC2=O	TGF-beta receptor type-1 (Rattus norvegicus) (UniProt P80204)	FALSE
C=C(C)[C@@H]1C[C@@H](N2CCCCC2)/C(C)=C/CCC2=C[C@@H]1OC2=O	TGF-beta receptor type-1 (Rattus norvegicus) (UniProt P80204)	FALSE
C=C(C)[C@@H]1C[C@@H](OC(C)C)/C(C)=C/CCC2=C[C@@H]1OC2=O	TGF-beta receptor type-1 (Rattus norvegicus) (UniProt P80204)	FALSE
C=C(C)[C@@H]1C/C=C(\C)[C@H](OC(=O)c2cc(C(F)(F)F)cc(C(F)(F)F)c2)CCC2=C[C@@H]1OC2=O	TGF-beta receptor type-1 (Rattus norvegicus) (UniProt P80204)	TRUE
C=C(C)[C@@H]1C[C@@H](OC)/C(C)=C/CCC2=C[C@@H]1OC2=O	TGF-beta receptor type-1 (Rattus norvegicus) (UniProt P80204)	FALSE
C=C(C)[C@@H]1C/C=C(\C)[C@H](Cl)CCC2=C[C@@H]1OC2=O	TGF-beta receptor type-1 (Rattus norvegicus) (UniProt P80204)	TRUE
C=C(C)[C@@H]1C[C@@H](O)/C(C)=C/CCC2=C[C@@H]1OC2=O	TGF-beta receptor type-1 (Rattus norvegicus) (UniProt P80204)	TRUE
C=C(C)[C@@H]1C[C@@H](OCC)/C(C)=C/CCC2=C[C@@H]1OC2=O	TGF-beta receptor type-1 (Rattus norvegicus) (UniProt P80204)	FALSE
C=C(C)[C@@H]1C/C=C(\C)[C@H](OC(=O)c2cccnc2Cl)CCC2=C[C@@H]1OC2=O	TGF-beta receptor type-1 (Rattus norvegicus) (UniProt P80204)	TRUE
C=C(C)[C@@H]1C[C@@H](N2CCOCC2)/C(C)=C/CCC2=C[C@@H]1OC2=O	TGF-beta receptor type-1 (Rattus norvegicus) (UniProt P80204)	FALSE
C=C(C)[C@@H]1C[C@@H](N2CCCC2)/C(C)=C/CCC2=C[C@@H]1OC2=O	TGF-beta receptor type-1 (Rattus norvegicus) (UniProt P80204)	FALSE
C=C(C)[C@@H]1C/C=C(\C)[C@H](OC(=O)c2ccc([N+](=O)[O-])cc2)CCC2=C[C@@H]1OC2=O	TGF-beta receptor type-1 (Rattus norvegicus) (UniProt P80204)	TRUE
C=C(C)[C@@H]1CC/C(C)=C/CC[C@@H](C(=O)OC)CC1=O	TGF-beta receptor type-1 (Rattus norvegicus) (UniProt P80204)	FALSE

###

- Study system: TGF-beta receptor type-1 (Homo sapiens)
- Sequence (P36897 whole entry): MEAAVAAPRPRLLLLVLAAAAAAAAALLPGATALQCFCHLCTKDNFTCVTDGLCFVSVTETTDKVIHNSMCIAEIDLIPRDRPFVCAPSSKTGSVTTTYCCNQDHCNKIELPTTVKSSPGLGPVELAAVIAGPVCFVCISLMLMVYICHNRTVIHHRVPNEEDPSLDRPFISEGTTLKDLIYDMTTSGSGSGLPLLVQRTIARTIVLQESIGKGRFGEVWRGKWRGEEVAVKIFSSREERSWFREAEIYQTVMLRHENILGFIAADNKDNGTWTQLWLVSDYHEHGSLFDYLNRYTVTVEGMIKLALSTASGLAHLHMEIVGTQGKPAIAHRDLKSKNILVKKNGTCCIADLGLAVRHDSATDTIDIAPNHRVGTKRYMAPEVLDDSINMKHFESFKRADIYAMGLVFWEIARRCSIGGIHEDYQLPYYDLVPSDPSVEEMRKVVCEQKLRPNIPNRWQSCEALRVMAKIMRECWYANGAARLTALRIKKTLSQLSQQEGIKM
- Assay name: Inhibition of recombinant human N-terminal GST-tagged TGFbeta1 receptor (80 to end residues) expressed in baculovirus infected Sf9 insect cells using casein as substrate measured after 2 hrs by ADP-Glo assay
pIC50: −log10 of the molar value.
Readout kind: pIC50

Smiles input	Readout kind	Val
C=C(C)[C@@H]1C/C=C(\C)C(=O)CCC2=C[C@@H]1OC2=O	pIC50	7.83

###

- Study system: TGF-beta receptor type-1 (Rattus norvegicus) (UniProt P80204)
- Sequence (whole entry): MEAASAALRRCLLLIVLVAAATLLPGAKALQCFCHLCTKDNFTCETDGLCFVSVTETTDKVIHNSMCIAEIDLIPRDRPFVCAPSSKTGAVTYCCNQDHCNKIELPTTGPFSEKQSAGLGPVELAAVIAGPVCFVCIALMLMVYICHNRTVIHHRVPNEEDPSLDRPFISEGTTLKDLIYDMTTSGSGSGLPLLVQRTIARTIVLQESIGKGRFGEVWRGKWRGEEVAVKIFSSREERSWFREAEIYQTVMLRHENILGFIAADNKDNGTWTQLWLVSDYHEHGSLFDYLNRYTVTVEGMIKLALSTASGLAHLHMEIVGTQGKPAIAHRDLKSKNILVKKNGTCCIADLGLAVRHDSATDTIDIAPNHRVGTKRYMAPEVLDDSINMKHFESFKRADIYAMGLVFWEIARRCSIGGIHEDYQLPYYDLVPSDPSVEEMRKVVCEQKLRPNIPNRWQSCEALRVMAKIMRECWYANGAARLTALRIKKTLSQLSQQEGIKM
- Assay name: Inhibition of TGFbeta1 receptor in TGFbeta1-stimulated Sprague-Dawley rat cardiac fibroblasts assessed as reduction in fibronectin expression at 50 uM measured after 12 hrs by Western blot analysis
Calls of active or inactive are those of the source. No cut-off for these calls is given here.
Possible outcomes: 1 (active), -1 (inactive)

Smiles input	Assigned class
C=C(C)[C@@H]1C/C=C(\C)[C@H](OC(=O)c2ccc(C(F)(F)F)cc2)CCC2=C[C@@H]1OC2=O	1
C=C(C)[C@@H]1C/C=C(\C)[C@@H](O)CCC2=C[C@@H]1OC2=O	1
C=C(C)[C@@H]1C[C@@H](OC)/C(C)=C/CCC2=C[C@@H]1OC2=O	-1
C=C(C)[C@@H]1C[C@@H](OCC)/C(C)=C/CCC2=C[C@@H]1OC2=O	-1
C=C(C)[C@@H]1C[C@@H](OC=O)/C(C)=C/CCC2=C[C@@H]1OC2=O	-1
C=C1CC[C@@H](C(=C)C)[C@@H]2C=C(CC[C@H]1F)C(=O)O2	1
C=C(C)[C@@H]1C[C@@H](N2CCCC2)/C(C)=C/CCC2=C[C@@H]1OC2=O	-1
C=C(C)[C@@H]1C/C=C(\C)[C@H](Cl)CCC2=C[C@@H]1OC2=O	1
C=C(C)[C@@H]1C/C=C(C)/C(=N\OC(=O)c2ccco2)CCC2=C[C@@H]1OC2=O	-1
C=C(C)[C@@H]1CC/C(C)=C/CC[C@@H](C(=O)OCC)CC1=O	-1
C=C(C)[C@@H]1C/C=C(\C)[C@H](OC(=O)c2cccnc2Cl)CCC2=C[C@@H]1OC2=O	1
C=C(C)[C@@H]1C/C=C(\C)[C@H](OC)CCC2=C[C@@H]1OC2=O	1
C=C(C)[C@@H]1CC/C(C)=C/CCC2=C[C@@H]1OC2=O	1
C=C(C)[C@@H]1C/C=C(C)/C(=N\OC(C)=O)CCC2=C[C@@H]1OC2=O	-1
C=C(C)[C@@H]1C/C=C(\C)C(=O)CCC2=C[C@@H]1OC2=O	1
C=C(C)[C@@H]1CC/C(C)=C/CC[C@@H](C(=O)OC)CC1=O	-1
C=C(C)[C@@H]1CC[C@]2(C)O[C@@H]2CCC2=C[C@@H]1OC2=O	1
C=C(C)[C@@H]1C/C=C(\C)[C@H](O[N+](=O)[O-])CCC2=C[C@@H]1OC2=O	1
C=C(C)[C@@H]1C/C=C(\C)[C@H](O)CCC2=C[C@@H]1OC2=O	1
C=C(C)[C@@H]1C/C=C(\C)[C@H](Br)CCC2=C[C@@H]1OC2=O	1
C=C(C)[C@@H]1C/C=C(\C)[C@H](OC(=O)c2ccc([N+](=O)[O-])cc2)CCC2=C[C@@H]1OC2=O	1
C=C(C)[C@@H]1C[C@@H](OC(C)C)/C(C)=C/CCC2=C[C@@H]1OC2=O	-1
C=C(C)[C@@H]1C/C=C(\C)[C@H](OC(=O)c2cccs2)CCC2=C[C@@H]1OC2=O	1
C=C(C)[C@@H]1C[C@@H](N2CCOCC2)/C(C)=C/CCC2=C[C@@H]1OC2=O	-1
C=C(C)[C@@H]1C/C=C(\C)[C@H](N=[N+]=[N-])CCC2=C[C@@H]1OC2=O	1
C=C(C)[C@@H]1C[C@@H](O)/C(C)=C/CCC2=C[C@@H]1OC2=O	1
